Test system: A549/ATCC NSCLC
Assay: NCI-60 one-dose screen, 48 h (100 = growth as untreated, 0 = no growth, -100 = all killed)
Conditions: 10 µM unless noted
The panel holds about 83,000 compounds, 20% with a hit somewhere; the sample as a whole holds those more often.
Below is a list of entries, each paired with its recorded growth value.
Parameter: growth (%)

| Structure | Units Symbol | Readout Value |
| --- | --- | --- |
| COc1ccc(/C(C)=C(\c2ccc(Cl)cc2)c2ccc(OCCN3CCCCCC3)cc2)cc1 | % | 39.4 |
| CC(C)(C)CC(C)(C)Nc1c(-c2c(O)c3ccccc3oc2=O)nc2c(Cl)cc(C(F)(F)F)cn12 | % | 85.5 |
| O=C(c1ccc(/C=C/c2n[nH]c3ccccc23)cc1)N1CCNCC1 | % | 22.4 |
| ClCc1ccc(-c2ccc(Cn3cnc4nc(Cl)nc(Cl)c43)cc2)cc1 | % | -6.5 |
| NC(=O)c1n[nH]n2c1nc(=O)c1c3c(sc12)CCCC3 | % | 92.7 |
| COc1ccc2c(CCCC(c3ccccc3)c3ccccc3)c3[n+](cc2c1OC)CCc1cc2c(cc1-3)OCO2 | % | 10.2 |
| Nc1c2c(c(O)c3c1=C(CO)C=N3)=NCCS2 | % | -72 |
| Cc1cnc(NC(=O)Nc2cc(Br)c(C)cc2OC[C@@H]2CNCCO2)cn1 | % | 17.5 |
| COc1ccc(F)c(F)c1C(=O)c1cnc(NC2CCN(S(C)(=O)=O)CC2)nc1N | % | 3.28 |
| C[C@@H]1COC(Nc2ccc3ncnc(Nc4ccc(OCc5nccs5)c(Cl)c4)c3c2)=N1 | % | 40.3 |

----------
Test system: RXF 393 renal
Experiment: NCI-60 one-dose screen, 48 h (100 = growth as untreated, 0 = no growth, -100 = all killed)
Settings: 10 µM unless noted
Compounds without any hit were thinned out: in the full panel of roughly 83,000, 20% have a hit.
Values of growth greater than or equal to 20% map to Y; values below map to N.

| Compound | Target Of Assay | Class |
| --- | --- | --- |
| Cc1cc(Nc2ncc(Cl)c(Nc3ccccc3S(=O)(=O)C(C)C)n2)c(OC(C)C)cc1C1CCNCC1 | RXF 393 renal | N |
| CCCCOc1nc2cc(Cl)ccc2cc1/C=C/c1cc(/C=C/c2cc3ccc(Cl)cc3nc2OCCCC)n(-c2ccccc2)n1 | RXF 393 renal | Y |
| CSc1nc2ncncc2[nH]1 | RXF 393 renal | Y |
| Clc1ccc(/C=C/c2cc(N3CCOCC3)c3cc(Cl)c(Cl)cc3n2)cc1 | RXF 393 renal | Y |
| Cc1cc(N(CCNc2ccnc3cc(Cl)ccc23)Cc2ccc3c(c2)OCO3)nc(N2CCN(C)CC2)n1 | RXF 393 renal | N |
| COc1cc2c(Oc3ccc4[nH]c(C)cc4c3F)ncnc2cc1OCCCN1CCCC1 | RXF 393 renal | Y |
| C=CC(=O)Nc1cc(Nc2nccc(-c3cn(C)c4ccccc34)n2)c(OC)cc1N(C)CCN(C)C | RXF 393 renal | N |
| CCNCCNc1cc(-c2ccc(Cl)c(Cl)c2)c(C#N)c2nc3ccccc3n12 | RXF 393 renal | N |
| CN(C[C@@H]1COCCO1)S(=O)(=O)Nc1ccc2ccc3ncc(-c4cnn(C)c4)cc3c(=O)c2c1 | RXF 393 renal | N |
| CC(=O)c1c(C)c2cnc(Nc3ccc(N4CCNCC4)cn3)nc2n(C2CCCC2)c1=O | RXF 393 renal | N |
| O=C(CNc1nc(-c2ccc(Cl)cc2)cs1)Nc1ccc(-c2nc3ccccc3s2)cc1 | RXF 393 renal | Y |
| CCN1CCN(Cc2ccc(NC(=O)Nc3nc(-c4cc(OC)c(OC)c(OC)c4)cs3)cc2C(F)(F)F)CC1 | RXF 393 renal | Y |
| CCN(CC)CCCC(C)Nc1cc(-c2ccc(C(F)(F)F)cc2)c(C#N)c2nc3ccccc3n12 (stereo not given) | RXF 393 renal | N |
| O=C(Cn1ccc2ccccc21)Nc1ccc(-c2nc3ccccc3s2)cc1 | RXF 393 renal | Y |
| Cn1ccnc1C(=O)/C=C/c1ccc(CC(=O)Nc2ccc(Br)cc2)cc1 | RXF 393 renal | Y |
| CCNC(=O)C#Cc1ccc2c(C(=Nc3ccc(CN(C)C)cc3)c3ccccc3)c(O)[nH]c2c1 | RXF 393 renal | N |
| C=CC(=O)N1CCC[C@@H](n2nc(-c3ccc(Oc4ccccc4)cc3)c3c(N)ncnc32)C1 | RXF 393 renal | N |
| COc1ccc(-c2cc3c(C)nc(N)nc3n(C3CCC(OCCO)CC3)c2=O)cn1 (stereo not given) | RXF 393 renal | N |
| O=C1CCC(=O)CC1 | RXF 393 renal | Y |
| O=C(Nc1nc2cccc(-c3ccc(CN4CCS(=O)(=O)CC4)cc3)n2n1)C1CC1 | RXF 393 renal | Y |
